Reference source for all entries: patent US20240309087A1

- EXPERIMENTAL_TARGET: T1, hCD112R mFC recombinant protein (human; murine, UniProt Q6DKI7 41-160)
- T1 construct: range 41-160; expressed in 293E cells; also called hCD112R ECD mFC; hCD112R-ECD-mFC; not shown: murine IgG2a Fc domain (MX2-mFc vector)
- T1 sequence (looked up): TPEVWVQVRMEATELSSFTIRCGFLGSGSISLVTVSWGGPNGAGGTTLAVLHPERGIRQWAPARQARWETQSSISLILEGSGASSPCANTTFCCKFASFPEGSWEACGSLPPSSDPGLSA
- TEST_DETAILS: FACS competition, hCD112R mFc on CHO CD112 cells; ratio Ref/antibody
Below: a set of entries, each annotated with reported Relative activity (%).

| BINDER | Relative activity (%) |
| --- | --- |
| Chi-55 (antibody, V domains shown, chimeric) VH: DVKLVESGGGLVKLGGSLKLSCAASGFTFSSYHMSWIRQTPEKRLELVAAINSNGINTYYLDTVKGRFTISRDNAKNTLYLQMSSLKSEDTALYYCARHEDYYGFAMDYWGQGTSVTVSS VL: SIVMTQTPKFLLVSAGDRVTITCKASQSVTNDVAWYQQKPGQSPKLLMYYVSNHYTGVPDRFIGSGYGTDFTFTISTVQAEDLAVYFCQQAYRSPWTFGGGTKLEIK | 104% |
| Chi-53 (antibody, V domains shown, chimeric) VH: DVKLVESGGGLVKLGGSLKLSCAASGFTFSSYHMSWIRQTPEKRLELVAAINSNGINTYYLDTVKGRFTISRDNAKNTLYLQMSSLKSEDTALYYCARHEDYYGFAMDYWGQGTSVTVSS VL: SIVMTQTPKFLLVSAGDRVTITCKASQSVSNDVAWYQEKPGQSPKLLMYYVSHRFTGVPDRFTGSGYGTDFTFTINTVQAEDLAVYFCHQAYRSPWTFGGGTKLEIK | 108% |
| Chi-69 (antibody, V domains shown, chimeric) VH: DVQLVESGGGLVKLGGSLKLSCVASGFTFSSYHMSWIRQTPEKRLELVAAINSNDINTYYLDTVKGRFTISRDIAKNTLHLQMSSLKSEDTALYYCARHEDYYGFAMDYWGQGTSVTVSS VL: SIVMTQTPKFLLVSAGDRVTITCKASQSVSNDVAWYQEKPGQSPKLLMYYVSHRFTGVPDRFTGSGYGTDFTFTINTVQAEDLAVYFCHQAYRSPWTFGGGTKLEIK | 110% |
| Chi-47 (antibody, V domains shown, chimeric) VH: DVKLVESGGGLVKLGGSLKLSCAASGFTFSSYHMSWVRQTPEKRLELVAAINSNVISTYYLDTVKGRFTISRDNAKNTLYLQMSSLKSEDTALYYCARHEDYYGFAMDYWGQGTSVTVSS VL: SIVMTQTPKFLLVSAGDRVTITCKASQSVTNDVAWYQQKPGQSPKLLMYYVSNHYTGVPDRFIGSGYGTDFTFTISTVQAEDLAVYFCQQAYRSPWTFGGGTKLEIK | 121% |
